# TEST: qHTS Assay for Lipid Storage Modulators (AID 1519); further: on the % scale 0 is the no-effect control and ±100 the full control effect
# TEST_SETTINGS: Drosophila S3 cells, BODIPY lipid droplet/cell ratio, laser cytometry; at 57.5 µM (top of the series); cells loaded with oleic acid
Records with an inconclusive call do not appear.
PARAMETER_MEASURED: activity change, negative = inhibition (%)

- COMPOUND: "CN=C(NC#N)Nc1ccc(C2=NNC(=O)CC2C)cc1 (stereo unspecified)"
  READING: 2.25
- COMPOUND: "O=C(O)c1cc2cc(Cc3cccnc3)ccc2o1"
  READING: 4.53
- COMPOUND: "CCCCc1nc(Cl)c(CO)n1Cc1ccc(-c2ccccc2-c2nn[nH]n2)cc1"
  READING: 9.33
- COMPOUND: "C=C(CC)C(=O)c1ccc(OCC(=O)O)c(Cl)c1Cl"
  READING: 1.41
- COMPOUND: "Cc1ccnc(NS(=O)(=O)c2ccc(N)cc2)n1"
  READING: 7.92
- COMPOUND: "CN1CCC(=C2c3ccccc3Sc3ccccc32)CC1"
  READING: 13.8

Data origin: PubChem BioAssay (NCATS)
